system: B16; experiment: Upregulation of MMP-9 mRNA expression in mouse B16 cells at 25 uM after 24 hrs by qRT-PCR analysis; format: functional, cell-based
Activity calls are given as the source filed them. The calls are words filed in the database; no cut-off is given here.

compound_string	target	Activity
CCCCCCCCCCCCCCCCCCOC(=O)CON(C)[C@@H]1O[C@H](CO)[C@@H](O[C@@H]2O[C@H](CO)[C@@H](O[C@H]3O[C@H](CO)[C@@H](O)[C@H](O)[C@H]3O)[C@H](O)[C@H]2O)[C@H](O)[C@H]1O	B16	Active
CCCCCCCCCCCCCCCCCCOC(=O)CON(C)[C@@H]1O[C@H](CO)[C@@H](O[C@@H]2O[C@H](CO)[C@H](O)[C@H](O)[C@H]2O)[C@H](O)[C@H]1O	B16	Active
CCCCCCCCCCCCC/C=C/[C@H](O)[C@@H](CO[C@@H]1O[C@H](CO)[C@@H](O[C@@H]2O[C@H](CO)[C@H](O)[C@H](O[C@]3(C(=O)O)C[C@H](O)[C@@H](NC(C)=O)[C@H]([C@H](O)[C@H](O)CO)O3)[C@H]2O)[C@H](O)[C@H]1O)NC(=O)CCCCCCCCCCCCCCCCC	B16	Active
CCCCCCCCCCCCCCCCCCOC(=O)[C@H](COC(=O)CON(C)[C@@H]1O[C@H](CO)[C@@H](O[C@@H]2O[C@H](CO)[C@H](O)[C@H](O[C@]3(C(=O)O)C[C@H](O)[C@@H](NC(C)=O)[C@H]([C@H](O)[C@H](O)CO)O3)[C@H]2O)[C@H](O)[C@H]1O)NC(=O)CCCCCCCCCCCCCCCCC	B16	Active
CCCCCCCCCCCCCCCCCCOC(=O)[C@H](COC(=O)CON(C)[C@@H]1O[C@H](CO)[C@@H](O[C@@H]2O[C@H](CO)[C@H](O)[C@H](O)[C@H]2O)[C@H](O)[C@H]1O)NC(=O)CCCCCCCCCCCCCCCCC	B16	Active
CCCCCCCCCCCCCCCCCCOC(=O)[C@H](COC(=O)CON(C)[C@@H]1O[C@H](CO)[C@@H](O)[C@H](O)[C@H]1O)NC(=O)CCCCCCCCCCCCCCCCC	B16	Active
CCCCCCCCCCCCCCCCCCOC(=O)CON(C)[C@@H]1O[C@H](CO)[C@H](O)[C@H](O)[C@H]1O	B16	Active
